- procedure_text: Ionization constant (pKa)
- Type: physicochemical
test_readout: pKa

{"compound": "COc1ccc(S(=O)(=O)c2csc(S(N)(=O)=O)c2)cc1", "test_readout": "pKa", "meas_value": 8.78}
{"compound": "Cl.NS(=O)(=O)c1cc(C(=O)c2ccc(CN3CCOCC3)cc2)cs1", "test_readout": "pKa", "meas_value": 9.28}
{"compound": "CC(C)(C)NCc1ccc(S(=O)(=O)c2csc(S(N)(=O)=O)c2)cc1.Cl", "test_readout": "pKa", "meas_value": 9.3}
{"compound": "COc1ccc(S(=O)(=O)c2coc(S(N)(=O)=O)c2)cc1", "test_readout": "pKa", "meas_value": 6.32}
{"compound": "CCC(C)NCc1cccc(S(=O)(=O)c2csc(S(N)(=O)=O)c2)c1.Cl (stereo not given)", "test_readout": "pKa", "meas_value": 9.05}
